# System: DMS-273
# assay.notes: NCI tumour cell line growth inhibition, 48 h
Active and inactive are the calls of the source. No stated cut-off is given here; in the data, active = GI50 up to about 1.1 µM and inactive = higher.
Would you mind answering with one of these outcomes? True (active), False (inactive)

Query: Assay result, entry O=C1Nc2ccccc2N=CC1NC(=O)C(c1ccccc1)c1ccccc1 (stereo not given) — outcome?
Reply: False

Query: Record lookup: outcome of this test for CC(=O)OC1CC2OC(Cc3ccccc32)O1 (stereo not given) ?
Reply: False

Query: Hi, do you know how CC12CCC(=O)C[C@H]1CCC(OC=O)C2Br (stereo not given in full) came out in this test?
Reply: False

Query: Which outcome was entered for the compound CC(=O)Nc1c(Nc2ccccc2)[nH]c(C)nc1=S in this test?
Reply: False

Query: Just curious, what result did COc1cccc(N[C@@H]2c3cc4c(cc3C(c3cc(OC)c(O)c(OC)c3)[C@H]3C(=O)OCC32)OCO4)c1 (stereo not given in full) get here?
Reply: True

Query: Please state the recorded outcome for this compound: C/C(CC(=O)Nc1ccc(Cl)cc1)=N\NC(=O)C[n+]1ccccc1
Reply: False

Query: Hi team, can someone confirm the assay call for O=C1c2ccccc2C(=O)N1Cc1ccccc1-c1c2nc(c(-c3ccccc3CN3C(=O)c4ccccc4C3=O)c3ccc([nH]3)c(-c3ccccc3CN3C(=O)c4ccccc4C3=O)c3nc(c(-c4ccccc4CN4C(=O)c5ccccc5C4=O)c4ccc1[nH]4)C=C3)C=C2 ?
Reply: False

Query: recorded result category for c1ccc(COCC2OC3c4ccccc4COC3C2OCc2ccccc2)cc1 (stereo not given) in this test
Reply: False

Query: What call does the record list for COc1ccccc1/N=N/c1c(-c2ccccc2)nn(C(=O)CC(=O)Nc2cccc(C)c2)c1-c1ccccc1 ?
Reply: False

Query: What was the test verdict on Cc1ccc(Sc2ccc(C)cc2[N+](=O)[O-])c([N+](=O)[O-])c1 ?
Reply: False

Query: Please indicate how the test categorized O=C1C(Cl)C(c2ccccc2O)N1n1cnc2ccccc2c1=O (stereo not given) .
Reply: False

Query: Recorded test call requested for CCOC(=O)CC1=CSC2=NCCN12
Reply: False

Query: Could you check what this test reported for CCOC(=O)/C(C#N)=C1/C(O)=C(C(=O)OC)C(C(=O)OC)=C1C(=O)OC.c1ccncc1 ?
Reply: False

Query: What call does the record list for O=c1[nH]c(=O)n([C@@H]2C[C@H](CO)[C@H](O)C2)cc1/C=C/Br ?
Reply: False

Query: Status in this test for CCOC(=O)[C-]([N+]#N)[Si](C)(C)C ?
Reply: False

Query: How was CCC1(CC)C(=O)NC(=S)N=C1N classified in this test?
Reply: False

Query: // param item: O=C(O)CNc1c2ccccc2nc2ccccc12 ; yields the recorded call
Reply: False

Query: Outcome? ClCc1ccc(C2OCCO2)cc1
Reply: False

Query: Please let me know the test result on file for COC(c1ccccc1)C(c1ccccc1)N1CCOCC1 (stereo not given) .
Reply: False

Query: Lab log entry: COC(=O)C1=C(C(=O)OC)C2C(C)=CC(C)=CN2C(C#N)=C(SC)S1 (stereo not given) — outcome as called in the assay?
Reply: False

----------
# System: K562
# assay.notes: NCI tumour cell line growth inhibition, 48 h
Activity calls are given as the source filed them. Cut-off read from the data, not from the text of the source: active = GI50 up to about 1.1 µM and inactive = higher.
quantity.name: GI50

// COC1CCC(OS(C)(=O)=O)C(CO)O1 (configuration not stated) : GI50 value = > 100 µM (inactive)

Looking up CN1CC[C@@]2(c3cccc(O)c3)CC(=O)/C(=C/c3ccccc3)[C@H]1C2.[O-][Cl+3]([O-])([O-])O , I see its GI50 listed as 2.58 µM (inactive)

GI50 in this record for CC(=O)Nc1c(Nc2ccccc2)[nH]c(C)nc1=S : > 100 µM (inactive)

response.value for CC(C)C1=CC23CCC4C(C)(C(=O)O)CCCC4(C)C2CC1C1C(=O)N(c2ccc(C(=O)O)cc2)C(=O)C13 (configuration not stated) (field: GI50) = > 100 µM (inactive)

// sample CC12CCC(=O)C[C@H]1CCC(OC=O)C2Br (some centres not stated) , its GI50 was > 100 µM (inactive)

Notebook: COC(=O)[C@@H]1COC(C(C)(C)C)N1C(=O)C(c1ccccc1)c1ccccc1 (some centres not stated) , GI50 read as 19.5 µM (inactive)

The reported value for O=C(O)CNc1c2ccccc2nc2ccccc12 in terms of GI50 is > 100 µM (inactive)

Measured GI50, Nc1ncnc2c1ncn2C1OC(CO)=CC1O (configuration not stated) : > 37.5 µM (inactive)

# compound CCOc1ccc(NCC(=O)N2CC(=O)Nc3ccccc32)cc1 ; its GI50 = > 100 µM (inactive)

GI50 reported for this compound Cc1ccc(Sc2ccccc2[N+](=O)[O-])cc1 : 18.1 µM (inactive)

For record O=C1C(Cl)C(c2ccccc2O)N1n1cnc2ccccc2c1=O (configuration not stated) the listed GI50 is 58.1 µM (inactive)

Lab book: GI50 of O=P(O)(O)c1ccc(-c2ccc(I)cc2)cc1 noted as > 100 µM (inactive)
